# literature pull: D(4) dopamine receptor (Homo sapiens) pKi
pKi: −log10 of the molar value.
observation.type: pKi

[
  {
    "compound": "CCOCCn1cc(CCCOc2ccc(CN3CCN(c4ccccc4OC)CC3)cc2OC)nn1",
    "observation.type": "pKi",
    "qualifier.operator": "=",
    "numeric.result": 8.19
  },
  {
    "compound": "COc1ccc(NC(=O)c2ccc(-c3ccc(-c4noc(C)n4)cc3C)cc2)cc1N1CCN(C)CC1",
    "observation.type": "pKi",
    "qualifier.operator": "<",
    "numeric.result": 5.00
  },
  {
    "compound": "COc1ccccc1N1CCN(CCCCNC(=O)C(C)(C)C)CC1",
    "observation.type": "pKi",
    "qualifier.operator": "=",
    "numeric.result": 7.90
  },
  {
    "compound": "Oc1ccc(CC2NCCc3cc(O)c(O)cc32)cc1 (stereo not given)",
    "observation.type": "pKi",
    "qualifier.operator": "=",
    "numeric.result": 5.51
  },
  {
    "compound": "CNc1cc(OC)c(C(=O)N[C@H]2CN(Cc3ccccc3)C[C@H]2C)cc1Cl (stereo in doubt)",
    "observation.type": "pKi",
    "qualifier.operator": "=",
    "numeric.result": 9.08
  }
]

###

Target sequence: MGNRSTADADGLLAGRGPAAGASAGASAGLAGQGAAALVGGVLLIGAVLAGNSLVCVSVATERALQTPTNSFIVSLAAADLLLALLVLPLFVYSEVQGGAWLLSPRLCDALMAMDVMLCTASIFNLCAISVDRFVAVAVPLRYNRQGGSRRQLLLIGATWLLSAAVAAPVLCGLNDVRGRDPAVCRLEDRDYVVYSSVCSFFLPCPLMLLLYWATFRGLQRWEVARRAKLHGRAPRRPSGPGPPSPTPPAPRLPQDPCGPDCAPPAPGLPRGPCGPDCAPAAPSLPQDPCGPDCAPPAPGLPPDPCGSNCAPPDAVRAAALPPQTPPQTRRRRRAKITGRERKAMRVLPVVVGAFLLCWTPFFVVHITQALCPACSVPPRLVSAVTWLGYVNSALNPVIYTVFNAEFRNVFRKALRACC
pKi: −log10 of the molar value.
Note to self: these compounds have pKi reported for the protein given by its sequence in various publications.
Quick rule for you: pKi at 8 or higher means MET, lower means NOT MET.

[
  {
    "compound": "FC(F)(F)c1nc2c(-[n+]3cc[n+](Cc4ccccc4)cc3)cccc2[nH]1",
    "category.label": "MET"
  },
  {
    "compound": "COc1ccccc1N1CCN(CNC(=O)c2ccc(C)cc2)CC1",
    "category.label": "MET"
  },
  {
    "compound": "CNc1cc(OC)c(C(=O)N[C@H]2CN(Cc3ccccc3)C[C@@H]2C)cc1Cl (stereo in doubt)",
    "category.label": "MET"
  },
  {
    "compound": "CCCCn1cc(CCCOc2ccc(C(=O)NCCCN3CCCN(c4ccc(O)c5[nH]c(=O)ccc45)CC3)cc2OC)nn1",
    "category.label": "NOT MET"
  },
  {
    "compound": "COc1ccc2c(c1)CCN1Cc3ccccc3CC21 (centres undefined)",
    "category.label": "NOT MET"
  },
  {
    "compound": "COc1ccccc1N1CCN(CNC(=O)c2ccccc2)CC1",
    "category.label": "NOT MET"
  },
  {
    "compound": "O=C(CCc1cn(CCCCCCCCn2cc(CCC(=O)OC3(c4ccc(Cl)cc4)CCN(CCCC(=O)c4ccc(F)cc4)CC3)nn2)nn1)OC1(c2ccc(Cl)cc2)CCN(CCCC(=O)c2ccc(F)cc2)CC1",
    "category.label": "NOT MET"
  },
  {
    "compound": "COc1ccccc1N1CCN(CCCCNC(=O)c2ccc(F)nc2)CC1",
    "category.label": "NOT MET"
  },
  {
    "compound": "CN1CCc2cc(Cl)c(O)cc2[C@@H](c2ccc(CN(C)S(=O)(=O)c3ccccc3)cc2)C1",
    "category.label": "NOT MET"
  }
]

###

Multi-source literature compilation: Ki on D(4) dopamine receptor (Homo sapiens).
observation.type: Ki (nM)

[
  {
    "compound": "CNc1cc(OC)c(C(=O)N[C@H]2CCN(C3C4CCCC3CCC4)C2)cc1Cl (stereo not given in full)",
    "observation.type": "Ki",
    "qualifier.operator": "=",
    "numeric.result": 0.67
  },
  {
    "compound": "C=C(C)CN(NC(=O)NCCCN1CCN(c2ccccc2OC)CC1)c1ccc(OC)cc1",
    "observation.type": "Ki",
    "qualifier.operator": "=",
    "numeric.result": 64
  },
  {
    "compound": "COc1cc2c(cc1OC)C1=NO[C@@H](CN3CCN(C/C=C/c4ccccc4)CC3)[C@@H]1CO2",
    "observation.type": "Ki",
    "qualifier.operator": ">",
    "numeric.result": 1000
  },
  {
    "compound": "O=C(NCCCN1CCN(c2ccccc2)CC1)C1c2ccccc2-c2ccccc21",
    "observation.type": "Ki",
    "qualifier.operator": "=",
    "numeric.result": 2170
  },
  {
    "compound": "Cc1nc(CN2CCC(OCc3ccc(F)c(F)c3)CC2)c2ccccn12",
    "observation.type": "Ki",
    "qualifier.operator": "=",
    "numeric.result": 478
  },
  {
    "compound": "COc1ccccc1N1CCN(CC(O)CCNC(=O)c2cc3cc(F)ccc3[nH]2)CC1 (stereo not given)",
    "observation.type": "Ki",
    "qualifier.operator": "=",
    "numeric.result": 967
  },
  {
    "compound": "Cc1ccc(CNCC2(F)CCN(C(=O)c3csc4ccccc34)CC2)nc1",
    "observation.type": "Ki",
    "qualifier.operator": "=",
    "numeric.result": 460
  },
  {
    "compound": "c1ccc(CCC2CN(Cc3c[nH]c4ccccc34)CCO2)cc1 (stereo not given)",
    "observation.type": "Ki",
    "qualifier.operator": "=",
    "numeric.result": 6.2
  },
  {
    "compound": "Cc1cc(I)cc(-c2nc(NC(=O)c3cccnc3)sc2-c2ccncc2)c1",
    "observation.type": "Ki",
    "qualifier.operator": "=",
    "numeric.result": 1240
  },
  {
    "compound": "O=C1CCc2ccccc2N1CCCN1CCC(c2ccccc2)CC1",
    "observation.type": "Ki",
    "qualifier.operator": "=",
    "numeric.result": 1.95
  }
]

###

Reported Ki on D(4) dopamine receptor (Homo sapiens, UniProt P21917) for assorted compounds, compiled from publications.
Note: every record was labeled by where its Ki sits among one (below 0.04 µM), two (0.04 µM to below 0.5 µM), three (0.5 µM or more)

[
  {
    "compound": "CN1CCc2cc(Cl)c(O)cc2[C@H]2c3cccc(N4CCCC4=O)c3CC[C@@H]21",
    "category.label": "three"
  },
  {
    "compound": "c1ccc(-c2nc(CN3CCN(c4ccccc4)CC3)c[nH]2)cc1",
    "category.label": "one"
  },
  {
    "compound": "COc1ccccc1N1CCCN(CCCCNC(=O)c2ccc(CCF)cc2)CC1",
    "category.label": "three"
  },
  {
    "compound": "COc1ccc(N(Cc2ccccc2F)NC(=O)NCCCN2CCN(c3ccccc3OC)CC2)cc1",
    "category.label": "one"
  },
  {
    "compound": "CNc1cc(OC)c(C(=O)NC[C@@H]2CN(Cc3ccccc3)C[C@@H]2C)cc1Cl",
    "category.label": "two"
  },
  {
    "compound": "O=C(NC1CCN(Cc2cccc(C(F)(F)F)c2)CC1)c1cccc2ccccc12",
    "category.label": "two"
  },
  {
    "compound": "COc1c(Cl)cccc1N1CCN(CCCCNC(=O)c2cc3ccc2CCc2ccc(cc2)CC3)CC1",
    "category.label": "one"
  },
  {
    "compound": "COc1c(C(=O)N[C@@H]2CCN(Cc3ccccc3)C2)cc(I)c2ccccc12 (stereo in doubt)",
    "category.label": "one"
  },
  {
    "compound": "c1ccc(CCN2CCC(c3cc(-c4ccccn4)[nH]n3)CC2)cc1",
    "category.label": "one"
  },
  {
    "compound": "CC(C)NCC(O)c1ccc(O)c(O)c1 (stereo not given)",
    "category.label": "three"
  },
  {
    "compound": "CCCc1c(C(=O)NCCCCN2CCN(c3cccc(Cl)c3Cl)CC2)nnn1Cc1ccccc1",
    "category.label": "two"
  },
  {
    "compound": "CN1CCc2cc(O)c(O)cc2C1Cc1ccc(O)c(O)c1 (stereo not given)",
    "category.label": "two"
  },
  {
    "compound": "COc1nc(NCCCN2CCOCC2)nc(OC)c1NC(=O)c1ccc(Oc2cc3c(cc2C)CCC3(C)C)o1",
    "category.label": "three"
  },
  {
    "compound": "c1ccc(N2CCN(Cc3nc4ccccc4[nH]3)CC2)nc1",
    "category.label": "two"
  },
  {
    "compound": "CN1CCN(C2=Nc3cc(Cl)ccc3N(NC(=O)c3c(N)cccc3Cl)c3ccccc32)CC1",
    "category.label": "three"
  },
  {
    "compound": "O=C1CCc2ccc(OCCCCN3CCC(n4c(=O)[nH]c5cc(Cl)ccc54)CC3)cc2N1",
    "category.label": "three"
  },
  {
    "compound": "COc1ccc(-c2cc(CCCCN3CCN(C(c4ccccc4)c4ccccc4)CC3)on2)c(OC)c1",
    "category.label": "three"
  },
  {
    "compound": "FC(F)(F)Oc1ccc(CN2CCOC(CCc3ccccc3)C2)cc1 (racemic)",
    "category.label": "two"
  },
  {
    "compound": "S=c1[nH]c2cccc(OCCNCc3ccccc3)c2[nH]1",
    "category.label": "one"
  }
]
